Origin of the recorded values: PubChem BioAssay (NCATS)

# MEASUREMENT_DESCRIPTION: qHTS Screen of the MIPE 4.0 Collection Against Ewings Sarcoma (TC32) (AID 1259256); further: nearly all actives have a fitted effect of over 45% in size
# TEST_SETTINGS: TC32 Ewing sarcoma viability, CellTiter-Glo, 48 h; series mostly up to 45.8 µM
Inconclusive results are not listed. Active and inactive are the calls of the source. The call rests on the fitted dose curve; in most records, active means well fitted inhibition curve with a large enough effect; inconclusive means small, poorly fitted or top-dose-only effect; inactive means no such curve, though single readings can be large or run the other way.
Select the correct class. Options are active, inactive and nothing else.

IN: Query: recorded result category for CCOC(=O)[C@H](CCc1ccccc1)N[C@H]1CCc2ccccc2N(CC(=O)O)C1=O in this test
OUT: active

IN: Query: recorded result category for CC[C@H](C)C(=O)O[C@H]1C[C@@H](C)C=C2C=C[C@H](C)[C@H](CC[C@@H]3C[C@@H](O)CC(=O)O3)[C@H]21 in this test
OUT: active

IN: Query: recorded result category for COC(=O)Nc1nc2ccc(S(=O)c3ccccc3)cc2[nH]1 (configuration not stated) in this test
OUT: active

IN: Query: recorded result category for CCc1c2c(nc3ccc(OC(=O)N4CCC(N5CCCCC5)CC4)cc13)-c1cc3c(c(=O)n1C2)COC(=O)[C@]3(O)CC in this test
OUT: inactive

IN: Query: recorded result category for COCCCOc1cc(C[C@@H](C[C@H](N)[C@@H](O)C[C@H](C(=O)NCC(C)(C)C(N)=O)C(C)C)C(C)C)ccc1OC in this test
OUT: inactive

IN: Query: recorded result category for Nc1[nH]c(=O)ncc1F in this test
OUT: active

IN: Query: recorded result category for CC(C)C1CCC(C(=O)N[C@H](Cc2ccccc2)C(=O)O)CC1 (some centres not stated) in this test
OUT: inactive

IN: Query: recorded result category for Cn1nnc2c(C(N)=O)ncn2c1=O in this test
OUT: inactive

IN: Query: recorded result category for Nc1nc(=S)c2[nH]cnc2[nH]1 in this test
OUT: active

IN: Query: recorded result category for Nc1ccc(S(=O)(=O)Nc2ccccn2)cc1 in this test
OUT: inactive

IN: Query: recorded result category for O=c1cc(O)c(Cl)c[nH]1 in this test
OUT: inactive

IN: Query: recorded result category for CCC(=O)O[C@]1(C(=O)CCl)[C@@H](C)C[C@H]2[C@@H]3CCC4=CC(=O)C=C[C@]4(C)[C@@]3(F)[C@@H](O)C[C@@]21C in this test
OUT: inactive

IN: Query: recorded result category for CC(=O)[C@H]1CC[C@H]2[C@@H]3CCC4=CC(=O)CC[C@]4(C)[C@H]3CC[C@]12C in this test
OUT: active

IN: Query: recorded result category for CC(C)(C)C(=O)OCOP(=O)(COCCn1cnc2c(N)ncnc21)OCOC(=O)C(C)(C)C in this test
OUT: inactive

IN: Query: recorded result category for Cc1ccnc2c1NC(=O)c1cccnc1N2C1CC1 in this test
OUT: inactive

IN: Query: recorded result category for CNCC[C@H](Oc1cccc2ccccc12)c1cccs1 in this test
OUT: active

IN: Query: recorded result category for NCCCC(O)(P(=O)(O)O)P(=O)(O)O in this test
OUT: inactive

IN: Query: recorded result category for CC(C)OC(=O)C(C(=O)OC(C)C)=C1SC=CS1 in this test
OUT: inactive

IN: Query: recorded result category for CS(=O)(=O)c1ccc([C@@H](O)[C@@H](CO)NC(=O)C(Cl)Cl)cc1 in this test
OUT: active

IN: Query: recorded result category for CC(C)Cn1cnc2c(N)nc3ccccc3c21 in this test
OUT: active

IN: Query: recorded result category for O=C(O)c1cccnc1 in this test
OUT: inactive

IN: Query: recorded result category for O=S(=O)(O)CCS in this test
OUT: inactive

---

# MEASUREMENT_DESCRIPTION: qHTS Screen of the MIPE 4.0 Collection Against Ewings Sarcoma (TC71) (AID 1259253); further: nearly all actives have a fitted effect of over 40% in size; further: potency means the concentration at half of the fitted maximal effect
# TEST_SETTINGS: TC71 Ewing sarcoma viability, CellTiter-Glo, 48 h; series mostly up to 45.8 µM
Results filed as inconclusive are left out. Active and inactive are the calls of the source. Calls follow the shape of the dose curve; as a rule, active = well fitted inhibition curve with a large enough effect; inconclusive = small, poorly fitted or top-dose-only effect; inactive = no such curve, though single readings can be large or run the other way.
PARAMETER: Potency

Guide cases for Potency, answers given:
CCc1c2c(nc3ccc(OC(=O)N4CCC(N5CCCCC5)CC4)cc13)-c1cc3c(c(=O)n1C2)COC(=O)[C@]3(O)CC: 0.332 µM (active)
CC(C)(C)C(=O)OCOP(=O)(COCCn1cnc2c(N)ncnc21)OCOC(=O)C(C)(C)C: 0.833 µM (active)
C[C@@H](CN1CC(=O)NC(=O)C1)N1CC(=O)NC(=O)C1: inactive
CC1CC2C3CCC4=CC(=O)C=C[C@]4(C)[C@@]3(F)[C@@H](O)C[C@]2(C)[C@@]1(O)C(=O)CO (stereo partly drawn): inactive
CC(C)OC(=O)C(C(=O)OC(C)C)=C1SC=CS1: inactive
CC(=O)[C@H]1CC[C@H]2[C@@H]3CCC4=CC(=O)CC[C@]4(C)[C@H]3CC[C@]12C: 3.32 µM (active)

IN: Dear colleague, I am looking for the recorded Potency of the following compound: Cc1cccc(Nc2ccncc2S(=O)(=O)NC(=O)NC(C)C)c1
OUT: inactive

IN: Dear colleague, I am looking for the recorded Potency of the following compound: CC(C)NCC(O)c1ccc(NS(C)(=O)=O)cc1 (stereo not drawn)
OUT: 16.6 µM (active)

IN: Dear colleague, I am looking for the recorded Potency of the following compound: CCCCOc1ccc(CC(=O)NO)cc1
OUT: 7.43 µM (active)

IN: Dear colleague, I am looking for the recorded Potency of the following compound: CCOC(=O)[C@H](CCc1ccccc1)N[C@H]1CCc2ccccc2N(CC(=O)O)C1=O
OUT: 20.9 µM (active)

IN: Dear colleague, I am looking for the recorded Potency of the following compound: CO[C@@]12[C@H](COC(N)=O)C3=C(C(=O)C(C)=C(N)C3=O)N1C[C@@H]1N[C@@H]12
OUT: 0.0418 µM (active)

IN: Dear colleague, I am looking for the recorded Potency of the following compound: CC(=O)[C@H]1CC[C@H]2[C@@H]3CC=C4C[C@@H](O)CC[C@]4(C)[C@H]3CC[C@]12C
OUT: inactive

IN: Dear colleague, I am looking for the recorded Potency of the following compound: COc1cc(NS(=O)(=O)c2ccc(N)cc2)nc(OC)n1
OUT: inactive

IN: Dear colleague, I am looking for the recorded Potency of the following compound: CCN[C@H]1C[C@H](C)S(=O)(=O)c2sc(S(N)(=O)=O)cc21
OUT: inactive

IN: Dear colleague, I am looking for the recorded Potency of the following compound: NC(=O)c1cccnc1
OUT: inactive

IN: Dear colleague, I am looking for the recorded Potency of the following compound: CCOCC(O)COc1ccc(NC(=O)CC[S+](C)C)cc1 (stereo not drawn)
OUT: inactive

---

# Test system: CP237
# MEASUREMENT_DESCRIPTION: qHTS profiling for inhibitors of Plasmodium falciparum proliferation (AID 504749); further: nearly all actives have a fitted effect of over 60% in size
# TEST_SETTINGS: P. falciparum in erythrocytes, SYBR Green DNA, 72 h; series mostly up to 28.7 µM
Inconclusive results are not listed. Calls of active or inactive are those of the source. Calls come from the whole dose curve; as a rule, active = well fitted inhibition curve with a large enough effect; inconclusive = small, poorly fitted or top-dose-only effect; inactive = flat fitted curve, though single readings scatter.
Select the correct class. Options are active, inactive and nothing else.

IN: Query: recorded result category for O=C(O)c1cc(=O)[nH]c(=O)[nH]1 in this test
OUT: inactive

IN: Query: recorded result category for CCc1cc(C(N)=S)ccn1 in this test
OUT: inactive

IN: Query: recorded result category for CN1CCN(c2c(F)cc3c(=O)c(C(=O)O)cn(CCF)c3c2F)CC1 in this test
OUT: inactive

IN: Query: recorded result category for CC(C)(C#N)c1cc(Cn2cncn2)cc(C(C)(C)C#N)c1 in this test
OUT: inactive

IN: Query: recorded result category for NC(N)=NC(N)=NCCc1ccccc1 in this test
OUT: inactive

IN: Query: recorded result category for O=P(O)(O)C(O)(Cc1cccnc1)P(=O)(O)O in this test
OUT: inactive

IN: Query: recorded result category for CC(C)OC(=O)C(C(=O)OC(C)C)=C1SC=CS1 in this test
OUT: inactive

IN: Query: recorded result category for OC(Cn1cncn1)(Cn1cncn1)c1ccc(F)cc1F in this test
OUT: inactive

IN: Query: recorded result category for CCOC(=O)c1ccc(C#Cc2ccc3c(c2)C(C)(C)CCS3)nc1 in this test
OUT: inactive

IN: Query: recorded result category for O=c1oc2c(O)c(O)cc3c(=O)oc4c(O)c(O)cc1c4c23 in this test
OUT: active

IN: Query: recorded result category for CC[C@H](NC(C)C)[C@H](O)c1ccc(O)c2[nH]c(=O)ccc12 in this test
OUT: inactive

IN: Query: recorded result category for CCCCOc1ccc(CC(=O)NO)cc1 in this test
OUT: active

---

# MEASUREMENT_DESCRIPTION: qHTS of pediatric cancer cell lines to identify multiple opportunities for drug repurposing: Primary screen for Rh18 cells (AID 1347102); further: nearly all actives have a fitted effect of over 65% in size
# TEST_SETTINGS: Rh18 rhabdomyosarcoma viability, CellTiter-Glo luminescence, 48 h; series mostly up to 46 µM
Records with an inconclusive call do not appear. The source made the active and inactive calls. Calls come from the whole dose curve; as a rule, active = well fitted cell-killing curve with a large enough effect; inconclusive = small, poorly fitted or top-dose-only effect; inactive = flat fitted curve, though single readings scatter.
PARAMETER: outcome

Guide cases for outcome, answers given:
NC(=O)c1cccnc1: inactive
CC(C(=O)O)c1ccc2c(c1)CC(=O)c1ccccc1S2 (stereo unspecified): inactive
CCN1CCCC1CNC(=O)c1cc(S(N)(=O)=O)ccc1OC (stereo unspecified): inactive
Cc1onc(-c2ccccc2Cl)c1C(=O)N[C@@H]1C(=O)N2[C@@H]1SC(C)(C)[C@@H]2C(=O)O: inactive
CCN(CC)CCn1c(=O)c(Cc2ccc(OC)cc2)nc2ccccc21: inactive

IN: Dear colleague, I am looking for the recorded outcome of the following molecule: CCCc1cc(C(N)=S)ccn1
OUT: inactive
